The entries below are paired with their reported inhibition at 10 µM.
# Test system: SARS-CoV-2 (B.1)
# ASSAY_PROCEDURE: Anti-SARS-CoV-2 activity in Vero E6 cells (viral yield by qRT-PCR)
# Assay type: cell-based
# ASSAY_CONDITIONS: Severe acute respiratory syndrome coronavirus 2, Vero C1008, B.1, 10 uM, Vero E6, replicates
// unit must come after the numeric part

GET /value?item= CCC(CC)COC(=O)[C@H](C)N[P@](=O)(OC[C@H]1O[C@@](C#N)(c2ccc3c(N)ncnn23)[C@H](O)[C@@H]1O)Oc1ccccc1 [Remdesivir, remdesivir, reference compound] &field=inhibition at 10 µM returns 98.6%

GET /value?item= CCC(CC)C(=O)OC[C@H]1O[C@@](C#N)(c2ccc3c(N)ncnn23)[C@H](O)[C@@H]1O &field=inhibition at 10 µM returns 99.9%

Further cases:
GET /value?item= N#C[C@@]1(c2ccc3c(N)ncnn23)O[C@H](COC(=O)c2ccccc2)[C@@H](O)[C@H]1O &field=inhibition at 10 µM returns 100%

GET /value?item= CCCC(=O)OC[C@H]1O[C@@](C#N)(c2ccc3c(N)ncnn23)[C@H](O)[C@@H]1O &field=inhibition at 10 µM returns 99.9%

GET /value?item= N#C[C@@]1(c2ccc3c(N)ncnn23)O[C@H](CO)[C@@H](O)[C@H]1O [GS-441524, reference compound] &field=inhibition at 10 µM returns 98.5%

GET /value?item= CC(C)CC(=O)OC[C@H]1O[C@@](C#N)(c2ccc3c(N)ncnn23)[C@H](O)[C@@H]1O &field=inhibition at 10 µM returns 99.9%

GET /value?item= CC(C)C(=O)OC[C@H]1O[C@@](C#N)(c2ccc3c(N)ncnn23)[C@H](O)[C@@H]1O &field=inhibition at 10 µM returns 99.9%
